Just for reference, patent US4444691A is where these values come from.

test system: ulcerogenic effects induced by indomethacin (stomach ulcers); type: in vivo, rat; details: total oral dose 25 mg/kg; indomethacin 20 mg/kg s.c.; score 0-4; controls 2.7-3.9
quantity.measured: Ulcer score, treated animals
Give bare numbers.

Known results for molecules:
[[record]]
molecule = "CCCCC[C@H](O)/C=C/[C@H]1[C@H](CC)C[C@H](O)[C@@H]1C/C=C\\CCCC(=O)O"
value_observed = 2.2

[[record]]
molecule = "CCCCC[C@H](O)/C=C/[C@@H]1[C@@H](C/C=C\\CCCC(=O)O)[C@@H](O)C[C@H]1C"
value_observed = 1.8


Below is a list of molecules. For each, state its recorded Ulcer score, treated animals.
1. CCCCC[C@H](O)/C=C/[C@H]1C(C#N)CC(=O)[C@@H]1C/C=C\CCCC(=O)OC (stereo partly shown)
2. CCCCC[C@H](O)/C=C/[C@H]1[C@H](C)CC(=O)[C@@H]1C/C=C\CCCC(=O)O [l-11α-methyl-11-deoxyprostaglandin-E2, 11-deoxy-11α-methyl-prostaglandin E2]
3. CCCCC[C@H](O)/C=C/[C@@H]1[C@@H](C/C=C\CCCC(=O)O)[C@@H](O)C[C@H]1C#N
4. CCCCC[C@H](O)/C=C/[C@@H]1[C@@H](C/C=C\CCCC(=O)O)[C@@H](O)C[C@H]1c1ccccc1
5. CCCCC[C@H](O)/C=C/[C@H]1[C@H](CC)CC(=O)[C@@H]1C/C=C\CCCC(=O)O [l-11α-ethyl-11-deoxyprostaglandin-E2, 11-deoxy-11α-ethyl-prostaglandin E2]

[1.3, 1.7, 1.3, 2.0, 2.2]

* * *

Give measured inhibition in vivo at 10 mg/kg for each item. Keep answers brief.
test system: basal gastric acid secretion; assay: Inhibition of total acid output (basal gastric acid secretion) in the acute gastric fistula rat; type: in vivo, female Sprague-Dawley rats; conditions: Rattus norvegicus, 2 h; intraduodenal, 10 mg/kg, 120 min; read-out: % Inhibition of total acid output, after 120 minutes (B)
Answers are plain numbers, in %.

# annotated cases, reported inhibition in vivo at 10 mg/kg shown
[[record]]
molecule = "CCCCC[C@H](O)/C=C/[C@H]1[C@H](C#N)CC(=O)[C@@H]1C/C=C\\CCCC(=O)O [l-11α-cyano-11-deoxyprostaglandin-E2, l-11-deoxy-11α-cyanoprostaglandin-E2]"
quantity_measured = "inhibition in vivo at 10 mg/kg"
value_observed = 18

[[record]]
molecule = "CCCCC[C@H](O)/C=C/[C@H]1[C@H](CC)CC(=O)[C@@H]1C/C=C\\CCCC(=O)O [l-11α-ethyl-11-deoxyprostaglandin-E2, 11-deoxy-11α-ethyl-prostaglandin E2]"
quantity_measured = "inhibition in vivo at 10 mg/kg"
value_observed = 66

[[record]]
molecule = "CCCCC[C@H](O)/C=C/[C@H]1[C@@H](C#N)CC(=O)[C@@H]1C/C=C\\CCCC(=O)O [l-11β-cyano-11-deoxyprostaglandin-E2, l-11-deoxy-11β-cyanoprostaglandin-E2]"
quantity_measured = "inhibition in vivo at 10 mg/kg"
value_observed = 43


// each listed molecule needs a value for inhibition in vivo at 10 mg/kg
1. CCCCC[C@@H](/C=C/[C@H]1C(C#N)CC(=O)[C@@H]1C/C=C\CCCC(=O)OC)OC(C)=O (stereo partly shown)
2. CCCCC[C@H](O)/C=C/[C@@H]1[C@@H](C/C=C\CCCC(=O)O)[C@@H](O)C[C@H]1C(C)(C)O
3. CCCCC[C@@H](/C=C/[C@H]1[C@H](SCC)CC(=O)[C@@H]1C/C=C\CCCC(=O)OC)OC(C)=O

1: 34; 2: 35; 3: 24
